Origin of the recorded values: ChEMBL document CHEMBL1909507

# Tested on: CCRF-CEM
# Measurement protocol: Antiproliferative activity against human CEM after 48 hrs by SRB assay
# Assay type: functional, cell-based
Measured endpoint: pIC50
Numbers only, as −log10 of the molar value.

Would you please look over these solved cases?
# Smiles data, pIC50
data = [
    ("Cc1ccc(C)c(NS(=O)(=O)c2ccc(N3CCNC3=O)cc2)c1", 7.13),
    ("COc1cccc(NS(=O)(=O)c2ccc(N3CCNC3=O)cc2)c1", 6.59),
    ("Cc1cc(C)cc(NS(=O)(=O)c2ccc(N3CCNC3=O)cc2)c1", 6.77),
    ("COc1cc(NS(=O)(=O)c2ccc(N3CCNC3=O)cc2)cc(OC)c1OC", 7.64),
    ("O=C1NCCN1c1ccc(S(=O)(=O)Nc2ccc3[nH]ccc3c2)cc1", 6.39),
    ("COc1cc(NS(=O)(=O)c2ccc(N3CCNC3=O)cc2)cc(OC)c1", 6.77),
    ("Cc1cccc(NS(=O)(=O)c2ccc(N3CCNC3=O)cc2)c1", 6.70),
    ("O=C1NCCN1c1ccc(S(=O)(=O)Nc2cccc(Cl)c2)cc1", 7.11),
    ("O=C1NCCN1c1ccc(S(=O)(=O)Nc2cccc(Br)c2)cc1", 6.96),
]

Moving on to another compound below.
Name the reported pIC50 value associated with the compound CCc1cccc(NS(=O)(=O)c2ccc(N3CCNC3=O)cc2)c1
6.70

* * *

# Tested on: HT-29
# Measurement protocol: Antiproliferative activity against human HT-29 cells after 48 hrs by SRB assay
# Assay type: functional, cell-based
# Settings: HT-29, 48 h
Measured endpoint: pIC50
Answers are plain numbers, as −log10 of the molar value.

Below, each entry is followed by its recorded pIC50 result.
# Smiles data, Tested on, Numeric value
measured = [
    ("Cc1cc(C)cc(NS(=O)(=O)c2ccc(N3CCNC3=O)cc2)c1", "HT-29", 7.09),
    ("O=C1NCCN1c1ccc(S(=O)(=O)Nc2ccc3c(c2)Cc2ccccc2-3)cc1", "HT-29", 6.35),
    ("CCc1cccc(NS(=O)(=O)c2ccc(N3CCNC3=O)cc2)c1", "HT-29", 6.96),
    ("Cc1cccc(NS(=O)(=O)c2ccc(N3CCNC3=O)cc2)c1", "HT-29", 6.96),
    ("O=C1NCCN1c1ccc(S(=O)(=O)Nc2ccc(F)c(F)c2)cc1", "HT-29", 6.46),
]

Batch of 6 molecules: report pIC50 for each.
1. Cc1ccc(C)c(NS(=O)(=O)c2ccc(N3CCNC3=O)cc2)c1
2. CCc1ccc(NS(=O)(=O)c2ccc(N3CCNC3=O)cc2)cc1
3. Cc1ccc(NS(=O)(=O)c2ccc(N3CCNC3=O)cc2)cc1C
4. Cc1ccc(NS(=O)(=O)c2ccc(N3CCNC3=O)cc2)cc1
5. COc1cc(NS(=O)(=O)c2ccc(N3CCNC3=O)cc2)cc(OC)c1OC
6. CCCCCc1ccc(NS(=O)(=O)c2ccc(N3CCNC3=O)cc2)cc1

1. 7.34
2. 6.18
3. 6.64
4. 6.32
5. 7.68
6. 6.00

Provide pIC50 values for the following items, in order.
1. O=C1NCCN1c1ccc(S(=O)(=O)Nc2cccc(Br)c2)cc1
2. COc1ccc(NS(=O)(=O)c2ccc(N3CCNC3=O)cc2)cc1OC
3. COc1ccc(NS(=O)(=O)c2ccc(N3CCNC3=O)cc2)cc1
4. Cc1ccc(NS(=O)(=O)c2ccc(N3CCNC3=O)cc2)c(C)c1

7.11
6.28
6.10
6.74

Return reported pIC50 values for all items listed beneath this line.
1. Cc1cccc(NS(=O)(=O)c2ccc(N3CCNC3=O)cc2)c1C
2. O=C1NCCN1c1ccc(S(=O)(=O)Nc2ccc(Br)cc2)cc1

[6.72, 6.52]

Count: 3. Required value per item: pIC50.
1. CCCCc1ccc(NS(=O)(=O)c2ccc(N3CCNC3=O)cc2)cc1
2. O=C1NCCN1c1ccc(S(=O)(=O)Nc2ccc3[nH]ccc3c2)cc1
3. O=C1NCCN1c1ccc(S(=O)(=O)Nc2ccc3c(c2)CCC3)cc1

1: 6.21; 2: 6.89; 3: 6.72

Please state, for each entry, its recorded pIC50.
1. O=C1NCCN1c1ccc(S(=O)(=O)Nc2ccc(I)cc2)cc1
2. O=C1NCCN1c1ccc(S(=O)(=O)Nc2ccc3c(c2)OCO3)cc1
3. O=C1NCCN1c1ccc(S(=O)(=O)Nc2ccc(F)cc2)cc1

[6.19, 6.55, 6.43]

Quick batch: pIC50 for everything below.
1. COc1cccc(NS(=O)(=O)c2ccc(N3CCNC3=O)cc2)c1
2. COc1ccccc1NS(=O)(=O)c1ccc(N2CCNC2=O)cc1
3. Cc1ccccc1NS(=O)(=O)c1ccc(N2CCNC2=O)cc1
4. O=C1NCCN1c1ccc(S(=O)(=O)Nc2ccccc2)cc1
5. CCCCOc1ccc(NS(=O)(=O)c2ccc(N3CCNC3=O)cc2)cc1
6. O=C1NCCN1c1ccc(S(=O)(=O)Nc2ccc(Cl)cc2)cc1
7. O=C1NCCN1c1ccc(S(=O)(=O)Nc2cccc(Oc3ccccc3)c2)cc1

1: 6.92; 2: 6.26; 3: 6.70; 4: 6.55; 5: 6.20; 6: 6.66; 7: 6.70

Dear colleague, could you send me pIC50 for each of the items below? Thanks.
1. COc1cc(NS(=O)(=O)c2ccc(N3CCNC3=O)cc2)cc(OC)c1
2. O=C1NCCN1c1ccc(S(=O)(=O)Nc2cccc(Cl)c2)cc1
3. CCc1ccccc1NS(=O)(=O)c1ccc(N2CCNC2=O)cc1
4. O=C1NCCN1c1ccc(S(=O)(=O)Nc2ccc(OC(F)F)cc2)cc1

1. 7.11
2. 7.26
3. 6.62
4. 6.19
